Target: WT GPR174 (Homo sapiens)
Sequence (Q9BXC1 whole entry): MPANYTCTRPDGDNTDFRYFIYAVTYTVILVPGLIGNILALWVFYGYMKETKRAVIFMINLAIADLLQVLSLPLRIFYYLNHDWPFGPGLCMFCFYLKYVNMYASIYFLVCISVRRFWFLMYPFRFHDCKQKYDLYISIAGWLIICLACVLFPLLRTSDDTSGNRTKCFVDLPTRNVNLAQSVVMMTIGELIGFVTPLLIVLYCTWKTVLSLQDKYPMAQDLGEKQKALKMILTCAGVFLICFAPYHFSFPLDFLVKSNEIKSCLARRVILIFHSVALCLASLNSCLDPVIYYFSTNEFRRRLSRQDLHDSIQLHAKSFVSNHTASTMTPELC
Experiment: Inhibition of PS-induced GPR174 Gs signaling (GloSensor), HEK293 stably transfected with WT GPR174
Settings: PS liposomes 1 μM; WT GPR174; read-out: apparent IC50, inhibition of PS-induced GPR174 Gs signaling
property_measured: IC50

stdin: Any idea what IC50 was measured for CC1CCN(c2cc(N3CCN(S(=O)(=O)c4ccccc4)CC3)c([N+](=O)[O-])cc2F)CC1 ?
stdout: 20 to 40 nM

====

EC50 for assorted compounds
Target: GPR174 (Homo sapiens, UniProt Q9BXC1)
Sequence (Q9BXC1 whole entry): as above
Assay: CRE-Luc reporter Gs signaling assay with GPR174
Type: cell-based
Set-up: host or cells: HEK293 or CHO cell lines (ATCC)
Conditions: pCRE-Luc reporter; multiple values = separate experiments
Entry rule: numbers only, all in nM.

Some solved entries appear below for comparison.
[[record]]
compound = "O=C1CCCC2=C1C(c1cccc(O)c1)C1=C(N2)c2ccccc2C1=O (stereo not drawn)"
property_measured = "EC50"
observed = 4400

[[record]]
compound = "Cc1ccc(S(=O)(=O)N2CCN(c3cc(N4CCC(C)CC4)c(F)cc3[N+](=O)[O-])CC2)cc1"
property_measured = "EC50"
observed = 1100

[[record]]
compound = "Cc1nnc(-c2ccc(C3C4=C(CCCC4=O)NC4=C3C(=O)c3ccccc34)cc2)o1 (stereo not drawn)"
property_measured = "EC50"
observed = 2800

[[record]]
compound = "O=C1CCCC2=C1C(c1ccc(OCCO)cc1)C1=C(N2)c2ccccc2C1=O (stereo not drawn)"
property_measured = "EC50"
observed = 4400


stdin: Any idea what EC50 was measured for O=C1CCCC2=C1C(c1ccncc1)C1=C(N2)c2ccccc2C1=O (stereo not drawn) ?
stdout: 6600

stdin: Check CCOC(=O)N1CCN(c2cc(N3CCCCC3C)c(F)cc2[N+](=O)[O-])CC1 (stereo not drawn) too.
stdout: 1000

stdin: Check O=C1CCCC2=C1C(c1ccc3c(c1)OCCO3)C1=C(N2)c2ccccc2C1=O (stereo not drawn) too.
stdout: 2600

stdin: Check O=C1CCCC2=C1C(c1ccc(N3CCCC3=O)cc1)C1=C(N2)c2ccccc2C1=O (stereo not drawn) too.
stdout: 5200

stdin: Check CC(C)(C)Oc1ccc(C2C3=C(CCCC3=O)NC3=C2C(=O)c2ccccc23)cc1 (stereo not drawn) too.
stdout: 1300

Values from patent US20200345725A1
